# Experimental target: GDP-bound KRAS wild-type protein (Homo sapiens)
# Sequence (P01116 whole entry): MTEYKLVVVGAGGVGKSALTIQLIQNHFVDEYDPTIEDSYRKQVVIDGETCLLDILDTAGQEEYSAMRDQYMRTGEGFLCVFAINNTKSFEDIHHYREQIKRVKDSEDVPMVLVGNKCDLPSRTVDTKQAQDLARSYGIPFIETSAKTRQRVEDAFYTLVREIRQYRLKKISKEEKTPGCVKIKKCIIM
# Protocol details: Binding to KRAS by surface plasmon resonance (SPR), Single Cycle Kinetics
# Condition summary: SPR, Single Cycle Kinetics, GDP-bound KRAS wild-type protein; read-out: KRAS KD
Measurement name: pKd
A value of pKd is the negative decimal logarithm of a concentration given in moles per litre.

Consider the following illustrative entries.
| Given smiles | pKd |
| --- | --- |
| CCCOC[C@H]1C(=O)N[C@@H]([C@@H](C)CC)C(=O)N(C)CC(=O)N(C)[C@H]2C/C=C\CCN(C2=O)[C@@H](CC2CCC(F)(F)CC2)C(=O)N(C)CC(=O)N[C@@H](CCc2ccc(C(F)(F)F)c(OC)c2)C(=O)N2C[C@@H](C)C[C@H]2C(=O)N(C)C2(CCC2)C(=O)N(C)[C@@H](C2CCCC2)C(=O)N(C)[C@H](C(=O)N(C)C)CC(=O)N1C | 9.49 |
| CCCOC[C@H]1C(=O)N[C@@H]([C@@H](C)CC)C(=O)N(C)CC(=O)N(C)[C@H]2C/C=C\CCN(C2=O)[C@@H](Cc2ccc(C)cc2)C(=O)N(C)CC(=O)N[C@@H](CCc2cc(F)c(C(F)(F)F)c(F)c2)C(=O)N2C[C@H](CCC)C[C@H]2C(=O)NC2(CCCC2)C(=O)N(C)[C@@H](C2CCCC2)C(=O)N(C)[C@H](C(=O)N(C)C)CC(=O)N1C | 9.42 |
| CCO[C@@H]1C[C@H]2C(=O)NC3(CC(F)(F)C3)C(=O)N(C)[C@@H](C3CCCC3)C(=O)N(C)[C@H](C(=O)N3CCOCC3)CC(=O)N(C)[C@@H](COC)C(=O)N[C@@H]([C@@H](C)CC)C(=O)N(C)CC(=O)N(C)[C@H]3CCCCCN(C3=O)[C@@H](Cc3ccc(C(F)(F)F)cc3)C(=O)N(C)CC(=O)N[C@@H](CCc3cc(F)c(C(F)(F)F)c(F)c3)C(=O)N2C1 | 9.28 |
| CCC(CC)[C@H]1C(=O)N(C)[C@H](C(=O)N(C)C)CC(=O)N(C)[C@@H](CC2CC2)C(=O)N[C@@H]([C@@H](C)CC)C(=O)N(C)CC(=O)N(C)[C@H]2C/C=C\CCN(C2=O)[C@@H](CC2CCC(F)(F)CC2)C(=O)N(C)CC(=O)N[C@@H](CCc2cc(F)c(C(F)(F)F)c(F)c2)C(=O)N2C[C@@H](C)C[C@H]2C(=O)NC2(CC(C)(C)C2)C(=O)N1C | 8.77 |
| C=CCCC[C@H]1C(=O)N[C@@H]([C@@H](C)CC)C(=O)N(C)CC(=O)N(C)[C@H]2CCCCN(C2=O)[C@@H](Cc2ccc(C(F)(F)F)cc2)C(=O)N(C)CC(=O)N[C@@H](CCc2cc(F)c(C(F)(F)F)c(F)c2)C(=O)N2C[C@H](OCC)C[C@H]2C(=O)N[C@](C)(CC=C)C(=O)N(C)[C@@H](C2CCCC2)C(=O)N(C)[C@H](C(=O)N2CCOCC2)CC(=O)N1C | 9.40 |
| CCC[C@H]1C(=O)N[C@@H]([C@@H](C)CC)C(=O)N(C)CC(=O)N(C)[C@H]2C/C=C\CCN(C2=O)[C@@H](Cc2ccc(C(F)(F)F)cc2)C(=O)N(C)CC(=O)N[C@@H](CCc2cc(F)c(C(F)(F)F)c(F)c2)C(=O)N2C[C@H](OCC)C[C@H]2C(=O)NC2(CCC2)C(=O)N(C)[C@@H](C2CCCC2)C(=O)N(C)[C@H](C(=O)N(C)C)CC(=O)N1C | 10.25 |
| CCO[C@@H]1C[C@H]2C(=O)NC3(CCC3)C(=O)N(C)[C@@H](C3CCCC3)C(=O)N(C)[C@H](C(=O)N(C)C)CC(=O)N(C)[C@@H](Cc3cccc(C#N)c3)C(=O)N[C@@H]([C@@H](C)CC)C(=O)N(C)CC(=O)N(C)[C@H]3CCCCCN(C3=O)[C@@H](Cc3ccc(C(F)(F)F)cc3)C(=O)N(C)CC(=O)N[C@@H](CCc3cc(F)c(C(F)(F)F)c(F)c3)C(=O)N2C1 | 9.77 |
| CC[C@H](C)[C@@H]1NC(=O)[C@H](COC)N(C)C(=O)C[C@@H](C(=O)N(C)C)N(C)C(=O)[C@H](C2CCCC2)N(C)C(=O)C2(CC(C)(C)C2)NC(=O)[C@@H]2C[C@@H](C)CN2C(=O)[C@H](CCc2ccc(C(F)(F)F)c(OC)c2)NC(=O)CN(C)C(=O)[C@H](Cc2ccc(C)cc2)N2CC/C=C\C[C@@H](C2=O)N(C)C(=O)CN(C)C1=O | 9.96 |

Request: Tell me its pKd given CC[C@H](C)[C@@H]1NC(=O)[C@H](CC)N(C)C(=O)C[C@@H](C(=O)N(C)C)N(C)C(=O)[C@H](C2CCCC2)N(C)C(=O)C2(CC(C)(C)C2)NC(=O)[C@@H]2C[C@H](C)CN2C(=O)[C@H](CCc2cc(F)c(C(F)(F)F)c(F)c2)NC(=O)CN(C)C(=O)[C@H](Cc2ccc(C)cc2)N2CC/C=C\C[C@@H](C2=O)N(C)C(=O)CN(C)C1=O as the entry.
Result: 9.96

Request: Tell me its pKd given C#CC[C@H]1C(=O)N[C@@H]([C@@H](C)CC)C(=O)N(C)CC(=O)N(C)[C@H]2C/C=C\CCN(C2=O)[C@@H](Cc2ccc(C(F)(F)F)cc2)C(=O)N(C)CC(=O)N[C@@H](CCc2cc(F)c(C(F)(F)F)c(F)c2)C(=O)N2C[C@@H](C)C[C@H]2C(=O)NC2(CCC2)C(=O)N(C)[C@@H](C2CCCC2)C(=O)N(C)[C@H](C(=O)N(C)CCC)CC(=O)N1C as the entry.
Result: 9.92

Request: Tell me its pKd given CCO[C@@H]1C[C@H]2C(=O)NC3(CCC3)C(=O)N(C)[C@@H](C3CCCC3)C(=O)N(C)[C@H](C(=O)N(C)C)CC(=O)N(C)[C@@H](CC)C(=O)N[C@@H]([C@@H](C)CC)C(=O)N3CC[C@H]3C(=O)N(C)[C@H]3C[C@@H](C)CCN(C3=O)[C@@H](Cc3ccc(C(F)(F)F)cc3)C(=O)N(C)CC(=O)N[C@@H](CCc3cc(F)c(C(F)(F)F)c(F)c3)C(=O)N2C1 as the entry.
Result: 10.24
